The measured values listed here are drawn from the RNAGym collection of RNA variant scans (doi:10.1073/pnas.2313332121).

polymerase ribozyme fitness (log ratio) for assorted variants
B1: TPR 5TU (parent)
chain: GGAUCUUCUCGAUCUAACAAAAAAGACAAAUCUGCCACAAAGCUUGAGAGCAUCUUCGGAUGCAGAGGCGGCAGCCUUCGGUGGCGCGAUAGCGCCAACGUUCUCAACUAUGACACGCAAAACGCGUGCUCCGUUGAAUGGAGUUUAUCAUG

- Variants of: B1
- assay method text: polymerase ribozyme fitness, log enrichment relative to wild type (log ratio); higher = more active; in vitro selection for triplet polymerase activity
Variants at the floor of the assay were thinned out.
reported property: polymerase ribozyme fitness (log ratio)

| variant code | result operator | value measured |
| --- | --- | --- |
| G59C A107U G143U | ≤ | -4.2 |
| G11A G141U | = | 0.246 |
| U31G A89C C95G C99A | ≤ | -4.2 |
| U56A C85U A121U C123G G124A U134A | = | -2.61 |
| A29C A41G A97C A122U | ≤ | -4.2 |
| A24G C85A | = | -2.96 |
| A37U C85A C93U G141C A147C | ≤ | -4.2 |
| C43U U55A C87U | ≤ | -4.2 |
| A12U A23G C87U | = | -3.67 |
| A41C A60G C75A A138U G141U U146C U148C | ≤ | -4.2 |
| C57A C85G | = | -1.75 |
| G11A C43G U90C G94A | = | -4.13 |
| C72U | = | -0.00972 |
| A21G A28G U61C | ≤ | -4.2 |
| A47U G48U G80C C93U | ≤ | -4.2 |
| A29U C35G C95G | = | -4.03 |
| A21U G34A G141A C149G | ≤ | -4.2 |
| G50A G84U G141U | = | -3.31 |
| A64G G80U C85U C93U G94U C103U | = | -4.18 |
| G59C G81C G84C | ≤ | -4.2 |
| A52C C69A C96A | = | -3.18 |
| U13A A21C A73G C85G A89U | = | -2.11 |
| A21C C27A A40U G46A C57U C87G G126A | ≤ | -4.2 |
| A66G G83U | = | -3.62 |
| C35G C76A | = | -4.13 |
| G67A C72A A142U | ≤ | -4.2 |
| C27G A39C G59C C85G C105G | ≤ | -4.2 |
| A21U U56A C96U | = | -0.871 |
| A12C A21U U53A G59C A60G G84A | = | -0.862 |
| G83U A120U A137C | = | -3.31 |
| A26C C76U G81U G86A U144C | = | -3.81 |
| A19G G84C A115U A121G | = | -3.97 |
| A17C A47U G58A G83U G94A G126U | ≤ | -4.2 |
| A19C C87U A97G A137U A142C | = | -4.12 |
| G34C A41G C54A U135C U145G | ≤ | -4.2 |
| A41C A137G C149U | = | -2.44 |
| A20C A73G C87G C114U G141A | ≤ | -4.2 |
| G48A A52U G86U | ≤ | -4.2 |
| U31G U45A A49C G84A A113G A142C | ≤ | -4.2 |
| C85G C93G | = | -3.68 |
| U4C C10U A20C A29U A52C A138C G140U | ≤ | -4.2 |
| A137G | = | -1.15 |
| A22G U31G C54U C96G A115G C123G A137C | ≤ | -4.2 |
| C8U A20G | = | -3.94 |
| A30U A66G A115U G143A | ≤ | -4.2 |
| A89U C93U | = | -1.6 |
| G59C G94A U101G A113C | ≤ | -4.2 |
| G11U G46A C85U | = | -2.44 |
| A16G A20C U78A C87U | ≤ | -4.2 |
| A26U C35U U55A C96G G124A | ≤ | -4.2 |
| A22C C38U C69U C85U | = | -1.31 |
| C14U A47C C54U G84A | = | -1.86 |
| A40C C87A | = | -3.55 |
| A24U G58C G88A C93U A121G | ≤ | -4.2 |
| A22G C85G | = | -2.32 |
| C54U A91U U102G | ≤ | -4.2 |
| C36A A73U G92U U134G G143U | = | -4.13 |
| A64G A150U | = | -3.42 |
| G42A A60G C87G | ≤ | -4.2 |
| G50A G62A G117A | = | -1.7 |
| A41C U56A C63A G83A | = | -0.629 |
| A23G C87U | = | -3.14 |
| G88C C95U | ≤ | -4.2 |
| A21U G46U U55A C85G A106G C116A | = | -1.91 |
| A28U A41C C75U G81A C103G C149G | ≤ | -4.2 |
| U9A U55G U78G G143C | ≤ | -4.2 |
| C93G C108U | = | -3.94 |
| G81A C87U G100C G133U G141U | ≤ | -4.2 |
| A28C A30U G86A | ≤ | -4.2 |
| U7A A119G A120C | = | -3.25 |
| C63U C93A C116G A142G | = | -3.41 |
| G81A C118A | = | -1.82 |
| A91G C118U A121U A122U G124A | = | -3.56 |
| C38U G86A U148C | = | -3.22 |
| U33G G42C G88U G124U C125G | = | -3.86 |
| G83U C95U C123U G143U | = | -3.65 |
| A28G C93U C105G | ≤ | -4.2 |
| U56A C118U C123G U144C | = | -0.722 |
| G58C G84A G112U | ≤ | -4.2 |
| C63A G117U A119C | = | 0.257 |
| U53C G84A C95U | = | -0.536 |
| A16C A19U A73G C87A U148G G152U | ≤ | -4.2 |
| U9G C10A C18U A66U G81U C96U | ≤ | -4.2 |
| U55A U61A | = | -3.16 |
| C10G A41C A73U U134A | ≤ | -4.2 |
| G92C G141A | = | -0.778 |
| G83C C95G U148G | ≤ | -4.2 |
| U9G C10A C43U C57G C99A | ≤ | -4.2 |
| A122G A138G C149U | = | -4 |
| U44G C51U G74A G94C A120U C149G | ≤ | -4.2 |
| C35U A89U C95A G126A A142C | ≤ | -4.2 |
